The measured values listed here are drawn from paper PMC4493460.

Test: in vitro
Settings: human, microsomes, Half-Life, 1st
half-life at 100 nM for assorted compounds
METRIC_NAME: half-life at 100 nM (min)

> print(dat)
                                   compound  measurement
1  COc1cc(C(C)=O)ccc1OCCCCCC1CCSS1 (centres unmarked)          7.3
2  COc1cc(C(C)=O)ccc1OC(=O)CCCCC1CCSS1 (centres unmarked)          1.1

---

Test: in vitro
Details: human, microsomes, Half-Life, Mean
half-life at 100 nM for assorted molecules
METRIC_NAME: half-life at 100 nM

> print(dat)
                                   molecule  measurement
1  COc1cc(C(C)=O)ccc1OCCCCCC1CCSS1 (centres unmarked)       ~7 min
2  COc1cc(C(C)=O)ccc1OC(=O)CCCCC1CCSS1 (centres unmarked)       ~1 min

---

half-life at 1 µM for assorted compounds
Assay: Stability in human plasma (Cerep, HPLC-MS/MS)
Assay type: in vitro ADME
Settings: human, plasma, 1.0E−06 M, 37 °C, 0-120 min, read-out: Half-Life, 2nd
METRIC_NAME: half-life at 1 µM (h)

> print(dat)
                                   compound  limit.operator  measurement
1  CCCOc1cc(N)ccc1C(=O)OCCN(CC)CC [Propoxycaine, reference compound]               <          0.5
2  COc1cc(C(C)=O)ccc1OC(=O)CCCCC1CCSS1 (stereo not shown)               >            2
3  COc1cc(C(C)=O)ccc1OCCCCCC1CCSS1 (stereo not shown)               =         5.85
4  CC(C)[N+](C)(CCOC(=O)C1c2ccccc2Oc2ccccc21)C(C)C [Propantheline, reference compound]               =         0.12

---

half-life at 1 µM for assorted compounds
Test: Stability in human plasma (Cerep, HPLC-MS/MS)
Assay type: in vitro ADME
Settings: human, plasma, 1.0E−06 M, 37 °C, 0-120 min, read-out: Half-Life, 1st
METRIC_NAME: half-life at 1 µM (min)

> print(dat)
                                   compound        metric.name  limit.operator  measurement
1  CC(C)[N+](C)(CCOC(=O)C1c2ccccc2Oc2ccccc21)C(C)C [Propantheline, reference compound]  half-life at 1 µM               =          7.2
2  CCCOc1cc(N)ccc1C(=O)OCCN(CC)CC [Propoxycaine, reference compound]  half-life at 1 µM               <           30
3  COc1cc(C(C)=O)ccc1OC(=O)CCCCC1CCSS1 (stereo not shown) [UPEI-100]  half-life at 1 µM               >          120
4  COc1cc(C(C)=O)ccc1OCCCCCC1CCSS1 (stereo not shown) [UPEI-104]  half-life at 1 µM               =          352
